Just for reference, a melting point compilation (Tetko et al.; mined from patent text by program, amines drawn as free bases though some values may be those of a salt) is where these values come from.

READOUT NAME: melting point

What does the record list as melting point for N#Cc1ccc(Oc2ccccc2)cc1Oc1ccccc1 ?
85 to 86 °C

Check CCOC(=O)NC(=O)P(=O)(OCC)OCC too.
57 to 64 °C

Check Cn1c(=O)sc2ccc(C(c3ccc(C#N)cc3)n3cncn3)cc21 (stereo not given) too.
122 to 125 °C

Check Nc1nc(COc2ccccc2)nc2nccnc12 too.
202 to 204 °C

Parameter requested: melting point. Apply to each item below.
1. O=C(O)c1oc(=O)c2cc(Cl)c(Cl)cc2c1-c1ccccc1
2. CCCCCCCCCCCCCCCCCCCCOC(=O)Nc1ccc(NC(=O)NS(=O)(=O)c2ccc3ccccc3c2)cc1
3. CC(C)(C)OC(=O)Nc1ccc(-c2ccccc2F)cc1NC(=O)CC(=O)c1sccc1C#N
4. NC(=O)C[C@H](NC(=O)OCc1ccccc1)C(=O)N[C@@H](Cc1ccccc1)[C@H](O)C(=O)O
5. CC1(C)CCC(C)(C)c2cc3[nH]c(S)nc3cc21
6. S=C1Nc2ccccc2N2CCN(c3ccccc3)CCN12

1: 243 to 244 °C; 2: 181 °C; 3: 63 to 66 °C; 4: 225 to 227 °C; 5: > 300 °C; 6: 202 to 206 °C
